# Tested on: CAMK1D;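 also: KINOMEscan scanMAX binding as percent activity remaining versus control; lower means stronger binding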
# condition.set: Compound Concentration (nM):1000
measure: Percent Control
Give the number first and the unit second.

Required: Percent Control, one value per compound below.
1. NS(=O)(=O)c1ccc(N/N=C2\C(=O)Nc3ccc(C(=O)NCCc4c[nH]cn4)cc32)cc1 [GW300660X]
2. COc1cc(C)c(N(C)C(=O)CN(C)C)cc1Nc1nc(Nc2cccc(F)c2C(N)=O)c2cc[nH]c2n1

1. 100%
2. 87%

Required: Percent Control, one value per compound below.
1. COc1cccc(-n2ncc3c(N/N=C/c4ccncc4)ncnc32)c1 [GW784752X]
2. CCn1c(-c2nonc2N)nc2c(C#CC(C)(C)O)nc(OCCNC)cc21.Cl

1: 100%; 2: 100%
